Below, each entry is listed with its recorded scaled lipid accumulation score.
System: primary human hepatic stellate cells (donor 1)
Experiment: scaled lipid accumulation score (0 = DMSO-like, 1 = nortriptyline-like); higher = stronger HSC inactivation (lipid re-accumulation), active = hit call of the paper
Details: library stock concentration: 10 mM; 48 h
Where a name gives a salt, the structure may show the parent alone. Screen size: about 5,800 compounds; about 620 (11%) showed activity. The list comes from a sample in which actives are over-represented; it also holds close analogues and randomly drawn compounds.

Recorded results for 8 compounds are shown here.
compound: CC(=O)O[C@H]1C[C@H](O[C@H]2[C@@H](O)C[C@H](O[C@H]3[C@@H](O)C[C@H](O[C@H]4CC[C@@]5(C)[C@H](CC[C@@H]6[C@@H]5C[C@@H](O)[C@]5(C)[C@@H](C7=CC(=O)OC7)CC[C@]65O)C4)O[C@@H]3C)O[C@@H]2C)O[C@H](C)[C@H]1O[C@@H]1O[C@H](CO)[C@@H](O)[C@H](O)[C@H]1O [Lanatoside c]
assay.metric: scaled lipid accumulation score
recorded.measurement: 0.892 (active)
--
compound: CCCN(CCC)C1CCc2cccc(O)c2C1 (stereo not given)
assay.metric: scaled lipid accumulation score
recorded.measurement: ≤ -0.07 (inactive)
--
compound: NC(Cc1cc(O)c(O)cc1O)C(=O)O (racemic) [6-Hydroxy-DL-DOPA]
assay.metric: scaled lipid accumulation score
recorded.measurement: ≤ -0.07 (inactive)
--
compound: O=C(NC(COc1ccc2[nH]c(=O)[nH]c2c1)c1ccccc1)c1cccn(Cc2ccc(F)c(F)c2)c1=O (stereo not given)
assay.metric: scaled lipid accumulation score
recorded.measurement: ≤ 0 (inactive)
--
compound: CCCN1CCc2cccc3c2[C@H]1Cc1ccc(O)c(O)c1-3 [R(-)-Propylnorapomorphine hydrochloride]
assay.metric: scaled lipid accumulation score
recorded.measurement: ≤ -0.038 (inactive)
--
compound: O=[N+]([O-])/C=C/c1ccc2c(c1)OCO2
assay.metric: scaled lipid accumulation score
recorded.measurement: 0.967 (active)
--
compound: O=C(Oc1ccc([N+](=O)[O-])cc1)N1CCC(C(O)(c2ccc3c(c2)OCO3)c2ccc3c(c2)OCO3)CC1
assay.metric: scaled lipid accumulation score
recorded.measurement: ≤ -0.001 (inactive)
--
compound: C=CCc1ccc2c(c1)OCO2
assay.metric: scaled lipid accumulation score
recorded.measurement: 0.109 (inactive)

We next turn to a different compound, shown below.
Prompt: Which measured scaled lipid accumulation score value corresponds to C[C@H](N)Cn1ccc2cc(F)c(Cl)cc21.O=C(O)/C=C/C(=O)O [Ro 60-0175 fumarate] ?
Completion: 0.953 (active)

* * *

Tested on: primary human hepatic stellate cells (donor 1)
Assay: scaled lipid accumulation score (0 = DMSO-like, 1 = nortriptyline-like); higher = stronger HSC inactivation (lipid re-accumulation), active = hit call of the paper
Settings: library stock concentration: 3.33 mM; 48 h
The whole screen tested about 5,800 compounds, of which about 620 (11%) showed activity.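 How the source made its calls: active = score above a cut-off or among the top three wells of a plate; in these data no inactive exceeds 0.85.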 The sample holds actives, similar compounds and a random draw of the others, so the mix is not that of the screen.
Would you mind answering with one of these outcomes? active, inactive

Answered examples (2):
compound: C[C@]12CC[C@H](O)C[C@@H]1CC[C@@H]1[C@@H]2CC[C@]2(C)C(=O)CC[C@@H]12 [Epiandrosterone]
category: inactive
--
compound: c1cc2c(cc1[C@H]1OC[C@H]3[C@@H]1CO[C@@H]3c1ccc3c(c1)OCO3)OCO2
category: inactive

Prompt: Short answer needed: outcome of this test for COC[C@H]1OC(=O)c2coc3c2[C@@]1(C)C1=C(C3=O)[C@@H]2CCC(=O)[C@@]2(C)C[C@H]1OC(C)=O ?
Completion: inactive

Prompt: What is the recorded call for this compound in the test? Fc1cc(F)c2c(c1)[C@H]1C=CC[C@@H]1C(c1cccnc1)N2 (some centres not stated) [Golgicide A]
Completion: active

Prompt: Write down the call the test reported for this compound. Item: NC(=NN=Cc1ccc(-c2cccc([N+](=O)[O-])c2)o1)N[N+](=O)[O-]
Completion: inactive

Prompt: Hi, sorry to bother you, what did the test record for CN1[C@@H]2CC[C@H]1C[C@@H](OC(=O)[C@H](CO)c1ccccc1)C2 ?
Completion: inactive

Prompt: Write down the call the test reported for this compound. Item: C[C@@H]1CC[C@@]2(OC1)O[C@H]1C[C@H]3[C@@H]4CC=C5C[C@@H](O[C@@H]6O[C@H](CO)[C@@H](O[C@@H]7O[C@@H](C)[C@H](O)[C@@H](O)[C@H]7O)[C@H](O)[C@H]6O[C@@H]6O[C@@H](C)[C@H](O)[C@@H](O)[C@H]6O)CC[C@]5(C)[C@H]4CC[C@]3(C)[C@H]1[C@@H]2C
Completion: inactive

* * *

Test system: primary human hepatic stellate cells (donor 1)
Experiment: scaled lipid accumulation score (0 = DMSO-like, 1 = nortriptyline-like); higher = stronger HSC inactivation (lipid re-accumulation), active = hit call of the paper
Conditions: library stock concentration: 10 mM; 48 h
Where a name gives a salt, the structure may show the parent alone. The whole screen tested about 5,800 compounds, of which about 620 (11%) showed activity.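 The calls were made as follows: active = score above a cut-off or among the top three wells of a plate; in these data no inactive exceeds 0.85.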 The full list was thinned out, with actives kept by preference.
Permitted responses: active, inactive

Example entries and their recorded answers appear below.
compound: COc1ccc(CNC(=O)/C=C/c2ccc3[nH]cc(CCN(C)C)c3c2)cc1
test.system: primary human hepatic stellate cells (donor 1)
category: active
//
compound: N#Cc1ccc(N2CCN(C(=O)COc3ccc4[nH]cc(CCN)c4c3)CC2)cc1 [Donitriptan hydrochloride]
test.system: primary human hepatic stellate cells (donor 1)
category: inactive
//
compound: O=C1CC[C@@]2(O)[C@H]3Cc4ccc(O)c5c4[C@@]2(CCN3CC2CC2)[C@H]1O5 [Naltrexone HCl]
test.system: primary human hepatic stellate cells (donor 1)
category: inactive
//
compound: CN1CC[C@@]2(C)c3cc(OC(=O)Nc4ccccc4)ccc3N(C)[C@@H]12 [Phenserine]
test.system: primary human hepatic stellate cells (donor 1)
category: inactive
//
compound: NCC(O)c1cc(O)c(O)cc1F (stereo unspecified) [6-Fluoronorepinephrine hydrochloride]
test.system: primary human hepatic stellate cells (donor 1)
category: inactive

Let us examine a further case.
Prompt: Hi, sorry to bother you, what did the test record for CCCC[N+]1(C)[C@@H]2C[C@@H](OC(=O)[C@H](CO)c3ccccc3)C[C@H]1[C@@H]1O[C@@H]12 (single isomer, unassigned; (-)) [(-)-Scopolamine,n-Butyl-, bromide] ?
Completion: inactive

* * *

Tested on: primary human hepatic stellate cells (donor 1)
Assay: scaled lipid accumulation score (0 = DMSO-like, 1 = nortriptyline-like); higher = stronger HSC inactivation (lipid re-accumulation), active = hit call of the paper
Settings: library stock concentration: 10 mM; 48 h
The whole screen tested about 5,800 compounds, of which about 620 (11%) showed activity. What follows is part of a selection rich in actives, with near analogues and random picks from the rest.
assay.metric: scaled lipid accumulation score

Consider the following illustrative entries.
compound: NC1=NC(=O)C(c2ccccc2)O1 (stereo unspecified)
scaled lipid accumulation score: ≤ 0 (inactive)
--
compound: [O-][n+]1ccccc1[S-].[O-][n+]1ccccc1[S-].[Zn+2]
scaled lipid accumulation score: 0.127 (inactive)

Prompt: May I ask what scaled lipid accumulation score has been recorded for N=C(NCc1ccc(Cl)cc1)SCCCc1c[nH]cn1 ?
Completion: 0.903 (active)

Prompt: Entry CN1C2CCC1CC(OC(=O)c1cc(Cl)cc(Cl)c1)C2 (stereo unspecified) : reported scaled lipid accumulation score = ?
Completion: 1.04 (active)

* * *

Test system: primary human hepatic stellate cells (donor 1)
Assay: scaled lipid accumulation score (0 = DMSO-like, 1 = nortriptyline-like); higher = stronger HSC inactivation (lipid re-accumulation), active = hit call of the paper
Conditions: library stock concentration: 1 mM; 48 h
Where a name gives a salt, the structure may show the parent alone. Among all 5,800 compounds or so, about 620 (11%) showed activity. The sample as a whole holds a higher share of actives than the screen did.
Catalogue of scaled lipid accumulation score values

Example molecules with recorded scaled lipid accumulation score:
molecule: C=C(C)[C@H]1CN[C@H](C(=O)O)[C@H]1CC(=O)O [(-)-(.alpha.)-Kainic Acid (hydrate)]
scaled lipid accumulation score: ≤ 0 (inactive)

molecule: CCCCC/C=C\C/C=C\C/C=C\C/C=C\CCCC(=O)Nc1ccc2c(C)cc(=O)oc2c1 [AMC Arachidonoyl Amide]
scaled lipid accumulation score: 0.06 (inactive)

molecule: CCCCCCC(C)(C)c1ccc([C@@H]2C[C@H](O)CC[C@H]2CCCO)c(O)c1
scaled lipid accumulation score: 0.004 (inactive)

molecule: CCCCC/C=C\C/C=C\C/C=C\C/C=C\CCC(C)C(=O)NCCF (centres undefined)
scaled lipid accumulation score: 0.05 (inactive)

Prompt: May I ask what scaled lipid accumulation score has been recorded for c1cc(N2CCNCC2)c2cc[nH]c2c1 [4-(1-piperazinyl)-1H-Indole (hydrochloride)] ?
Completion: ≤ 0 (inactive)

Prompt: Param item = CO[C@H](C/C=C\C=C\CC/C=C/C[C@H](C)/C=C/C(=C\C(=O)O)CC(=O)O)/C(C)=C\C=C(/C)C(=O)O ; retrieve measured scaled lipid accumulation score.
Completion: ≤ -0.014 (inactive)

Prompt: What value of scaled lipid accumulation score has been recorded for this entry: CCCCC/C=C\C/C=C\C/C=C\C/C=C\CCCC(=O)NCCc1ccc(O)c(O)c1
Completion: ≤ 0 (inactive)

Prompt: Entry C=C(C)[C@@H]1CCC(C)=C[C@H]1C1=C(O)C(=O)C(CCCCC)=CC1=O : reported scaled lipid accumulation score = ?
Completion: 0.055 (inactive)

Prompt: Could you tell me which scaled lipid accumulation score is on file for CCCCC/C=C\C/C=C\C/C=C\C/C=C\CCCC(N)=O [Arachidonoyl amide] ?
Completion: ≤ 0 (inactive)

Prompt: // returns reported scaled lipid accumulation score for input CCCCCCCC/C=C\CCCCCCCC(=O)N[C@H](C)CO
Completion: 0.021 (inactive)

Prompt: Fill blank: measured scaled lipid accumulation score of the molecule CCCCC/C=C\C/C=C\C/C=C\C/C=C\CCCC(=O)NC[C@@H](C)O [R-2 Methanandamide] is ____.
Completion: ≤ 0 (inactive)

Prompt: Record request: scaled lipid accumulation score value, item COC(=O)[C@@H](N)CCCNC(=N)N[N+](=O)[O-] [L-NAME (hydrochloride)]
Completion: ≤ 0 (inactive)

Prompt: Field request: scaled lipid accumulation score | item: COc1ccc2c(c1)[nH]c1c(C)nccc12
Completion: 0.141 (inactive)

Prompt: Find the recorded scaled lipid accumulation score belonging to CCCCC/C=C\C/C=C\C/C=C\C/C=C\CCCC(N)=O [Arachidonamide] and report it.
Completion: ≤ -0.021 (inactive)
